Numbers sourced from the supplement of paper PMC4862054.

Listing of recorded normalised viability by entry.
# Test system: HCC1599
# Assay procedure: normalised viability (% of control), CellTiter-Blue; higher = more viable cells (about 100 = DMSO control)
# Stated conditions: 100 nM; incubation time: 72 h
Return type: number; implicit unit %.

C=CC[C@@H]1/C=C(\C)C[C@H](C)C[C@H](OC)[C@H]2O[C@@](O)(C(=O)C(=O)N3CCCC[C@H]3C(=O)O[C@H](/C(C)=C/[C@@H]3CC[C@@H](O)[C@H](OC)C3)[C@H](C)[C@@H](O)CC1=O)[C@H](C)C[C@@H]2OC [Tacrolimus] :: 123
Clc1ccc(C(c2ccccc2Cl)C(Cl)Cl)cc1 (stereo not given) [Mitotane] :: 107
CN1CCC(COc2cnc(-c3cccc(Cn4nc(-c5cccc(C#N)c5)ccc4=O)c3)nc2)CC1 :: 116
COc1cccc2cc(-c3nc([C@H]4CC[C@H](C(=O)O)CC4)n4ncnc(N)c34)[nH]c12 [OSI-027] :: 88.9

For the next question, use this compound.
Find the recorded normalised viability belonging to S=c1[nH]cnc2nc[nH]c12 [Mercaptopurine] and report it.
93.5

====

# Test system: MDA-MB-453
# Assay procedure: normalised response (% of control), CellTox Green; higher = less cell death (100 = DMSO, 0 = benzethonium chloride kill control)
# Stated conditions: incubation time: 72 h
Reported metric: normalised response (%)
Return type: number; implicit unit %.

Some molecules with known normalised response results, for comparison:
CN(C)C/C=C/C(=O)Nc1cc2c(Nc3ccc(F)c(Cl)c3)ncnc2cc1O[C@H]1CCOC1 [Afatinib] (1000 nM) :: 97.1
S=c1[nH]cnc2nc[nH]c12 [Mercaptopurine] (1000 nM) :: 101
COc1cccc2c1C(=O)c1c(O)c3c(c(O)c1C2=O)C[C@@](O)(C(=O)CO)C[C@@H]3O[C@H]1C[C@H](N)[C@H](O)[C@H](C)O1 [Doxorubicin] (1000 nM) :: 130
COc1cccc2cc(-c3nc([C@H]4CC[C@H](C(=O)O)CC4)n4ncnc(N)c34)[nH]c12 [OSI-027] (100 nM) :: 101

Find the recorded normalised response belonging to C[C@]1(c2nc3c(C(N)=O)cccc3[nH]2)CCCN1 [Veliparib] (10000 nM) and report it.
95.4

Find the recorded normalised response belonging to C=CC[C@@H]1/C=C(\C)C[C@H](C)C[C@H](OC)[C@H]2O[C@@](O)(C(=O)C(=O)N3CCCC[C@H]3C(=O)O[C@H](/C(C)=C/[C@@H]3CC[C@@H](O)[C@H](OC)C3)[C@H](C)[C@@H](O)CC1=O)[C@H](C)C[C@@H]2OC [Tacrolimus] (10000 nM) and report it.
100

====

# System: CAL-148
# Assay procedure: normalised response (% of control), CellTiter-Glo; higher = more viable cells (100 = DMSO, 0 = benzethonium chloride kill control)
# Stated conditions: incubation time: 72 h
Reported metric: normalised response (%)
Return type: number; implicit unit %.

Some compounds with known normalised response results, for comparison:
CC(=O)O[C@]1(C(C)=O)CC[C@H]2[C@@H]3C=C(C)C4=CC(=O)CC[C@]4(C)[C@H]3CC[C@@]21C [Megestrol acetate] (10 nM) :: 86.9
CS(=O)(=O)c1ccc(C(=O)Nc2ccc(Cl)c(-c3ccccn3)c2)c(Cl)c1 [Vismodegib] (1 nM) :: 103
Nc1ccn([C@@H]2O[C@H](CO)[C@@H](O)[C@@H]2O)c(=O)n1 [Cytarabine] (1000 nM) :: 55.5

// map C=CC[C@@H]1/C=C(\C)C[C@H](C)C[C@H](OC)[C@H]2O[C@@](O)(C(=O)C(=O)N3CCCC[C@H]3C(=O)O[C@H](/C(C)=C/[C@@H]3CC[C@@H](O)[C@H](OC)C3)[C@H](C)[C@@H](O)CC1=O)[C@H](C)C[C@@H]2OC [Tacrolimus] (10 nM) to recorded normalised response (system: CAL-148)
97.4

// map C=CC[C@@H]1/C=C(\C)C[C@H](C)C[C@H](OC)[C@H]2O[C@@](O)(C(=O)C(=O)N3CCCC[C@H]3C(=O)O[C@H](/C(C)=C/[C@@H]3CC[C@@H](O)[C@H](OC)C3)[C@H](C)[C@@H](O)CC1=O)[C@H](C)C[C@@H]2OC [Tacrolimus] (1000 nM) to recorded normalised response (system: CAL-148)
96.6
